Property: protein stability index; scope: individual variants
B1: TFE3 (parent)
chain: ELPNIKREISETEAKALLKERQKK

variants of: B1; experiment: protein stability index of a GFP-peptide fusion (GPS, HEK-293T) (PSI 1-6); higher = more stable; conditions: c terminus: a fixed tail appended;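 note: lentivirally expressed fusions sorted by FACS into six bins by GFP to DsRed ratio, PSI derived from sequencing read proportions per bin multiplied by bin number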

RESIDUE STRING	protein stability index
ELPNIKDEISETEAKALLKERQKK [R7D]	2.95
ELPNIKREISETEAKALLKARQKK [E20A]	2.99
ELPNIKREISITEAKALLKERQKK [E11I]	3.05
ELPNIKREIGETEAKALLKERQKK [S10G]	3
ELPNIKREINETEAKALLKERQKK [S10N]	3
